system: acyl-CoA synthetase (ACS) (SEQ ID NO: 1); experiment: ACS activity on substrates of various chain lengths (enzymatic coupled assay for detection of AMP); type: biochemical, Ruegeria pomeroyi; conditions: 5 mM substrate, 250 μM CoA, 1 mM ATP, pH 7.5
Listed molecules paired with reported log10 Activity
METRIC_NAME: log10 Activity (log10 of the value in μM AMP/min/μM ACS)

| MOLECULE | TARGET | METRIC_NAME | MEASURED_VALUE |
| --- | --- | --- | --- |
| O=C(O)CCC(=O)O [Succinate, succinate] | acyl-CoA synthetase (ACS) (SEQ ID NO: 1) | log10 Activity | -1.22 |
| CC(=O)O [Acetate] | acyl-CoA synthetase (ACS) (SEQ ID NO: 1) | log10 Activity | 1.58 |
| NCCCCCC(=O)O | acyl-CoA synthetase (ACS) (SEQ ID NO: 1) | log10 Activity | -1.82 |
| CC(=O)CC(=O)O [Acetoacetate] | acyl-CoA synthetase (ACS) (SEQ ID NO: 1) | log10 Activity | 1.53 |
| C[C@H](O)CC(=O)O [(S)-3HB, (3S)-hydroxybutyrate] | acyl-CoA synthetase (ACS) (SEQ ID NO: 1) | log10 Activity | 2.35 |
| C[C@@H](O)CC(=O)O [(R)-3HB, (3R)-hydroxybutyrate] | acyl-CoA synthetase (ACS) (SEQ ID NO: 1) | log10 Activity | 2.51 |
